Origin of values: patent US10005768B2

measurementTarget: human Nav1.7 (Homo sapiens (Human))
assayName: FLIPR membrane potential dye assay (alternative fluorescence assay)
Format: cell-based
assayContext: recombinant Nav1.7/HEK293 cells
measurementName: IC50 (µM)
Give the quantity in µM, number only.

Give its IC50 value. Item: Cn1nccc1-c1cc(Cl)ccc1Oc1ccc(-c2nc(N[C@H]3CCNC3=O)cc(C(N)=O)n2)cc1 [compound 141] 0.45

Now consider CCN(CC)Cc1cc(C(F)(F)F)ccc1Oc1ccc(-c2nc(C(N)=O)cc([C@@H](O)CO)n2)cc1 [compound 133] . 0.699

Now consider NC(=O)c1cc(CCn2ccnc2)nc(-c2ccc(Oc3ccc(C(F)(F)F)cc3CN3CCOCC3)cc2)n1 [compound 127] . 0.486

---

measurementTarget: human Nav1.7 (Homo sapiens (Human), UniProt Q15858)
Sequence (Q15858 other isoform, or with tags, fused parts or gaps): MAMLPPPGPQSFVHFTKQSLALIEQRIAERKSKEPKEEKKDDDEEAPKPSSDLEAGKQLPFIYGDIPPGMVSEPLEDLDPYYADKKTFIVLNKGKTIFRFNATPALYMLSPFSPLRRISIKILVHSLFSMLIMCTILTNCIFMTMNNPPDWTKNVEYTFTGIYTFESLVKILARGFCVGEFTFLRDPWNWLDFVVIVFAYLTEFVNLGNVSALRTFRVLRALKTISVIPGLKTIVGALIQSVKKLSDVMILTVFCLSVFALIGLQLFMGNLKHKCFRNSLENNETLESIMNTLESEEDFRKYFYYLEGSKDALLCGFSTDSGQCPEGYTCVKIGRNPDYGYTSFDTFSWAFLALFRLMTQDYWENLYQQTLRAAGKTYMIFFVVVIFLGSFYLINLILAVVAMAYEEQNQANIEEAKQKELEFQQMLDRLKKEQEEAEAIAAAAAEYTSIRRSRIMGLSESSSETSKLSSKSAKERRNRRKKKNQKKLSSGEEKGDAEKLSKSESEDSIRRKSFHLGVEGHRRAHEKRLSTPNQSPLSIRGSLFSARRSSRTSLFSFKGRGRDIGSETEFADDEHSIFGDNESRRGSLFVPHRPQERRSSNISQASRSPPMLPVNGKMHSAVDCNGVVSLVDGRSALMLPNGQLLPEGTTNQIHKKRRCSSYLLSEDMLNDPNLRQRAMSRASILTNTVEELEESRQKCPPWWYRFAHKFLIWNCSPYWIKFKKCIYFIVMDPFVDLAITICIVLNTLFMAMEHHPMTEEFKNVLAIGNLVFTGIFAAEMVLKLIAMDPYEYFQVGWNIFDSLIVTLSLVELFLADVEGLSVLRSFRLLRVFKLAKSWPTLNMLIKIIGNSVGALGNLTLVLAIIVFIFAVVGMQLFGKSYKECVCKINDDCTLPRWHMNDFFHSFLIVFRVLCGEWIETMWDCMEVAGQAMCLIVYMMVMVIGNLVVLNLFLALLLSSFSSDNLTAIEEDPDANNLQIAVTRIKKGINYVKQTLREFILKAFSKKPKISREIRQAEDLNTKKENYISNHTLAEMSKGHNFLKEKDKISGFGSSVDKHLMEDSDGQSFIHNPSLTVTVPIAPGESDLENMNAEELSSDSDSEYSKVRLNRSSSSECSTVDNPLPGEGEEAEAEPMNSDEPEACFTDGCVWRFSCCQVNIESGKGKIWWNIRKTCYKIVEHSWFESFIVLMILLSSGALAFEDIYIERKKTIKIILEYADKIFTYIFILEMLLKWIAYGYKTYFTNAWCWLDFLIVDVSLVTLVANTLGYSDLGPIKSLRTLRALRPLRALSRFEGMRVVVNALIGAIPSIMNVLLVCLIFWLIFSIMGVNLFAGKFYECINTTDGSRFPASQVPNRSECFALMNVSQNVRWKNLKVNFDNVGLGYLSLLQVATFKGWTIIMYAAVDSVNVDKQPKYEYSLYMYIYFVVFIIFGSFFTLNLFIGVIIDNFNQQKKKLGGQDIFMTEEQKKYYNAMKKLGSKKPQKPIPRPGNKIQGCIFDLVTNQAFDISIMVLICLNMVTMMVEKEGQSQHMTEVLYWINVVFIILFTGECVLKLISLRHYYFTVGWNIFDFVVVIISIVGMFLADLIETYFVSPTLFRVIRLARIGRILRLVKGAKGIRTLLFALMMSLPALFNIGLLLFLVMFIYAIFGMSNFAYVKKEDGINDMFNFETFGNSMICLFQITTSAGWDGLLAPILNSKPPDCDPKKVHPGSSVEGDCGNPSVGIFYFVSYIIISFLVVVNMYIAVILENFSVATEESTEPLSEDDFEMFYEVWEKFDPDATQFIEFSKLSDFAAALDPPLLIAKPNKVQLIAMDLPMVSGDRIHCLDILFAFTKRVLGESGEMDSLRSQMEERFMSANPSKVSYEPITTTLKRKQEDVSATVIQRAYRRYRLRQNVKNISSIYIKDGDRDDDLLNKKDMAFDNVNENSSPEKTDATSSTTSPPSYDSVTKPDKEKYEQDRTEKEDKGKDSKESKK
assayName: FLIPR sodium dye assay (CoroNa Green AM Na+ dye, primary fluorescence assay)
Type: cell-based
assayContext: recombinant Nav1.7/HEK293 cells
I'd be grateful if you could share measured IC50 for these entries.
Give the quantity in µM, number only.

Give its IC50 value. Item: OC[C@@H](O)c1cccc(-c2ccc(Oc3ccc(F)cc3C(O)C(F)(F)F)cc2)n1 (stereo partly shown) [compound 156] 1.29

Now consider CN(C)CCCNCc1cc(C(F)(F)F)ccc1Oc1ccc(-c2cccc(C(N)=O)n2)cc1 [compound 38] . 1.69

Now consider CCN(CC)C(=O)c1cc(C(F)(F)F)ccc1Oc1ccc(-c2cccc(C(N)=O)n2)cc1 [compound 164] . 0.143

Now consider NC(=O)c1cccc(-c2ccc(Oc3ccc(C(F)(F)F)cc3-c3ccncc3)cc2)n1 [compound 28] . 0.101

Now consider NC(=O)c1cccc(-c2ccc(Oc3ccc(C(F)(F)F)cc3CN3CCCC3)cc2)n1 [compound 30] . 0.049

Now consider N#Cc1ccc(Oc2ccc(-c3cccc(C(N)=O)n3)cc2)c(-c2ccncc2)c1 [compound 15] . 0.147

Now consider NC(=O)c1cccc(-c2ccc(Oc3ccc(C(F)(F)F)cc3-c3cccnc3)cc2)n1 [compound 29] . 0.117

Now consider NC(=O)c1cccc(-c2ccc(Oc3ccc(C(F)(F)F)cc3[C@@H](O)CO)cc2)n1 [compound 77] . 2.45

Now consider NC(=O)c1cccc(-c2ccc(Oc3ccc(C(F)(F)F)cc3CN3CCC(F)(F)C3)cc2)n1 [compound 45] . 0.113

Now consider NC(=O)c1cccc(-c2ccc(Oc3ccc(F)cc3)c(CN3CCOCC3)c2)n1 [compound 98] . 0.961

Now consider N#Cc1ccc(Oc2ccc(-c3cccc(C(N)=O)n3)cc2)cc1-c1cccnc1 [compound 27] . 0.549

---

I'd be grateful if you could share measured IC50 for these entries.
measurementTarget: UniProt:Q15858
assayName: FLIPR membrane potential dye assay (alternative fluorescence assay)
Assay type: cell-based
assayContext: recombinant Nav1.7/HEK293 cells
Give the quantity in µM, number only.

Give its IC50 value. Item: CN(C)c1cnc(-c2cc(C(F)(F)F)ccc2Oc2ccc(-c3nc(N[C@H]4CCNC4=O)cc(C(N)=O)n3)cc2)cn1 [compound 129] 0.702

Now consider Cn1nccc1-c1cc(C(F)(F)F)ccc1Oc1ccc(-c2cc([C@H](O)CO)cc(C(N)=O)n2)cc1 [compound 135] . 0.294

Now consider Cn1nccc1-c1cc(C(F)(F)F)ccc1Oc1ccc(-c2cccc(C(N)=O)n2)cc1 [compound 123] . 0.149

Now consider O=C(Nc1nncs1)c1cc(C(F)(F)F)ccc1Oc1ccc(-c2cccc([C@H](O)CO)n2)cc1 [compound 174] . 3.61

Now consider CCN(C)C(=O)c1cc(C(F)(F)F)ccc1Oc1ccc(-c2cccc([C@H](O)CO)n2)cc1 [compound 169] . 1.55

Now consider CCN(CC)Cc1cc(C(F)(F)F)ccc1Oc1ccc(-c2nc(CCOC(C)=O)cc(C(N)=O)n2)cc1 [compound 124] . 0.367

Now consider C[C@H](Nc1cc(C(N)=O)nc(-c2ccc(Oc3ccccc3-c3ccnn3C)cc2)n1)C(N)=O [compound 140] . 4.23

---

measurementTarget: human Nav1.7 (Homo sapiens (Human))
assayName: FLIPR sodium dye assay (CoroNa Green AM Na+ dye, primary fluorescence assay)
Format: cell-based
assayContext: recombinant Nav1.7/HEK293 cells
measurementName: IC50 (µM)
Give the quantity in µM, number only.

Give its IC50 value. Item: NC(=O)c1cccc(-c2ccc(Oc3ccc(C(F)(F)F)cc3C(C(N)=O)N3CCCCC3)cc2)n1 (centres unmarked) 2.72

Now consider NC(=O)c1cccc(-c2ccc(Oc3ccc(C(F)(F)F)c(CN4CCC4)c3)cc2)n1 . 0.384

Now consider NC(=O)c1cccc(-c2ccc(Oc3ccc(C(F)(F)F)cc3CN3CCC[C@H]3C(N)=O)cc2)n1 . 1.16

Now consider OC[C@H](O)c1ccnc(-c2ccc(Oc3ccc(C(F)(F)F)cc3CN3CCCC3)cc2)n1 . 0.455

Now consider NC(=O)c1cccc(-c2ccc(Oc3ccc(F)cc3)c(-c3nn[nH]n3)c2)n1 . 1.83

Now consider NC(=O)c1cccc(-c2ccc(Oc3ccc(C(F)(F)F)cc3CN3CCC(N)C3)cc2)n1 (centres unmarked) . 1.85

Now consider NC(=O)c1cccc(-c2ccc(Oc3ccc(C(F)(F)F)cc3CN3CCC[C@@H]3CO)cc2)n1 . 1.17

Now consider CCN(CC)S(=O)(=O)c1cc(C(F)(F)F)ccc1Oc1ccc(-c2cccc([C@H](O)CO)n2)cc1 . 0.249

---

measurementTarget: human Nav1.7 (Homo sapiens (Human), UniProt Q15858)
assayName: FLIPR sodium dye assay (CoroNa Green AM Na+ dye, primary fluorescence assay)
Assay type: cell-based
assayContext: recombinant Nav1.7/HEK293 cells
So basically: is IC50 under 0.3 µM? Then yes (1). Not under? Then no (0).

Quick check: does N#Cc1ccc(Oc2ccc(-c3cccc(C(N)=O)n3)cc2)c(-c2ccsc2)c1 [compound 19] have IC50 under 0.3 µM? no (0)

Now consider NC(=O)c1cccc(-c2ccc(Oc3ccc(C(F)(F)F)c(CN4CCNC(=O)C4)c3)cc2)n1 [compound 106] . no (0)

Now consider N#Cc1ccc(Oc2ccc(-c3cccc(C(N)=O)n3)cc2)cc1-c1ccncc1 [compound 26] . yes (1)

Now consider CC(C)(C)OC(=O)N1CCC(NCc2cc(C(F)(F)F)ccc2Oc2ccc(-c3cccc(C(N)=O)n3)cc2)C1 (stereo not drawn) [compound 48] . no (0)

Now consider NCC(O)c1cc(C(F)(F)F)ccc1Oc1ccc(-c2cccc(C(N)=O)n2)cc1 (stereo not drawn) [compound 64] . no (0)

Now consider Cn1nccc1-c1cc(C#N)ccc1Oc1ccc(-c2cccc(C(N)=O)n2)cc1 [compound 22] . yes (1)

Now consider CCN(CC)S(=O)(=O)c1cc(C(F)(F)F)ccc1Oc1ccc(-c2cccc(C(N)=O)n2)cc1 [compound 109] . no (0)

Now consider N#Cc1cc(-c2cccc(C(N)=O)n2)ccc1Oc1ccc(F)cc1 [compound 89] . no (0)

Now consider NC(=O)c1cccc(-c2ccc(Oc3ccc(C(F)(F)F)cc3CN3CCNC(=O)C3)cc2)n1 [compound 35] . yes (1)

---

measurementTarget: human Nav1.7 (Homo sapiens (Human))
assayName: FLIPR sodium dye assay (CoroNa Green AM Na+ dye, primary fluorescence assay)
Assay type: cell-based
assayContext: recombinant Nav1.7/HEK293 cells
So basically: is IC50 under 0.6 µM? Then 1.0. Not under? Then 0.0.

Quick check: does COCc1cc(-c2cccc(C(N)=O)n2)ccc1Oc1ccc(F)cc1 have IC50 under 0.6 µM? 1.0

Now consider NC(=O)c1cccc(-c2ccc(Oc3ccc(C(F)(F)F)cc3CN3CCCC(O)C3)cc2)n1 (centres unmarked) . 1.0

Now consider CN(c1ccccc1)c1cc(-c2cccc(C(N)=O)n2)ccc1Oc1ccc(F)cc1 . 0.0

Now consider CCN(CC)C(C(N)=O)c1cc(C(F)(F)F)ccc1Oc1ccc(-c2cccc(C(N)=O)n2)cc1 (centres unmarked) . 1.0

Now consider NC(=O)c1cccc(-c2ccc(Oc3ccc(C(F)(F)F)cc3CNCCc3ccc(S(N)(=O)=O)cc3)cc2)n1 . 0.0

Now consider CCN(CC)Cc1cc(-c2cccc(C(N)=O)n2)ccc1Oc1ccc(F)cc1 . 0.0

Now consider NC(=O)c1cccc(-c2ccc(Oc3ccc(C(F)(F)F)cc3CNCCO)cc2)n1 . 0.0

Now consider NCc1cc(C(F)(F)F)ccc1Oc1ccc(-c2cccc(C(N)=O)n2)cc1 . 0.0

---

measurementTarget: human Nav1.7 (Homo sapiens (Human), UniProt Q15858)
assayName: FLIPR sodium dye assay (CoroNa Green AM Na+ dye, primary fluorescence assay)
Assay type: cell-based
assayContext: recombinant Nav1.7/HEK293 cells
So basically: is IC50 under 1 µM? Then Satisfied. Not under? Then Not satisfied.

Quick check: does NC(=O)c1cccc(-c2ccc(Oc3ccc(C(F)(F)F)cc3C(=O)O)cc2)n1 have IC50 under 1 µM? Not satisfied

Now consider NC(=O)c1cccc(-c2ccc(Oc3ccc(C(F)(F)F)cc3CN3CCOCC3)cc2)n1 . Satisfied

Now consider CN(Cc1cc(-c2cccc(C(N)=O)n2)ccc1Oc1ccc(F)cc1)c1ccccc1 . Not satisfied

Now consider CCN(CCN(C)C)Cc1cc(C(F)(F)F)ccc1Oc1ccc(-c2cccc(C(N)=O)n2)cc1 . Satisfied

Now consider CCOCc1cc(-c2cccc(C(N)=O)n2)ccc1Oc1ccc(F)cc1 . Not satisfied

Now consider CN1CCN(C(=O)c2cc(C(F)(F)F)ccc2Oc2ccc(-c3cccc(C(N)=O)n3)cc2)CC1 . Not satisfied

Now consider CN(C)CCNCc1cc(C(F)(F)F)ccc1Oc1ccc(-c2cccc(C(N)=O)n2)cc1 . Not satisfied

Now consider NC(=O)c1cccc(-c2ccc(Oc3ccc(C(F)(F)F)cc3CNC3CCCC3)cc2)n1 . Satisfied

Now consider N#Cc1ccc(Oc2ccc(-c3cccc(C(N)=O)n3)cc2)c(-c2ccc(N)cc2)c1 . Satisfied

Now consider CN(C)CCN(C)Cc1cc(C(F)(F)F)ccc1Oc1ccc(-c2cccc(C(N)=O)n2)cc1 . Not satisfied

Now consider NC(=O)c1cccc(-c2ccc(Oc3ccc(F)cc3)c(Cl)c2)n1 . Satisfied

Now consider CN(CCO)Cc1cc(C(F)(F)F)ccc1Oc1ccc(-c2cccc(C(N)=O)n2)cc1 . Not satisfied

Now consider NC(=O)c1cccc(-c2ccc(Oc3ccc(C(F)(F)F)cc3CNCCN3CCNC3=O)cc2)n1 . Not satisfied

Now consider OC[C@@H](O)c1cccc(-c2ccc(Oc3ccc(C(F)(F)F)cc3CN3CCCCC3)cc2)n1 . Satisfied
